B1: LOC100129726 (parent)
chain: VHTGCHKKLGPEARRPRTRWGKN

variants of: B1; experiment: protein stability index of a GFP-peptide fusion (GPS, HEK-293T) (PSI 1-6); higher = more stable; conditions: c terminus: native;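 also: lentivirally expressed fusions sorted by FACS into six bins by GFP to DsRed ratio, PSI derived from sequencing read proportions per bin multiplied by bin number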
Entries and their measured protein stability index follow.
metric_name: protein stability index

{"variant_descriptor": "R15Q", "metric_name": "protein stability index", "measured_number": 1.75}
{"variant_descriptor": "R14W", "metric_name": "protein stability index", "measured_number": 1.54}
{"variant_descriptor": "K8S", "metric_name": "protein stability index", "measured_number": 2.25}
{"variant_descriptor": "K7H", "metric_name": "protein stability index", "measured_number": 2.33}
{"variant_descriptor": "P16C", "metric_name": "protein stability index", "measured_number": 1.24}
{"variant_descriptor": "H2G", "metric_name": "protein stability index", "measured_number": 2.38}
{"variant_descriptor": "G4K", "metric_name": "protein stability index", "measured_number": 2.71}
{"variant_descriptor": "H2D", "metric_name": "protein stability index", "measured_number": 1.82}
{"variant_descriptor": "W20Y", "metric_name": "protein stability index", "measured_number": 2.26}
{"variant_descriptor": "H2L", "metric_name": "protein stability index", "measured_number": 2.38}
{"variant_descriptor": "T18G", "metric_name": "protein stability index", "measured_number": 3.94}
{"variant_descriptor": "R17W", "metric_name": "protein stability index", "measured_number": 1.66}
{"variant_descriptor": "G10T", "metric_name": "protein stability index", "measured_number": 2.48}
{"variant_descriptor": "G10Y", "metric_name": "protein stability index", "measured_number": 1.29}
{"variant_descriptor": "K7E", "metric_name": "protein stability index", "measured_number": 1.87}
{"variant_descriptor": "W20M", "metric_name": "protein stability index", "measured_number": 3.15}

Numbers sourced from the supplement of paper PMC10567573.
